Reference for the values: ChEMBL document CHEMBL5303304

Tested on: U2OS
Assay: Incucyte cell viability with U2OS; also: unitless GR value; below 1 slowed growth and below 0 cell loss
Assay type: toxicity, cell-based
Conditions: human, 6 h, 10 µM, compound concentration 10 uM, replicate number 2
REPORTED_METRIC: Growth Rate
Just the number, please, no unit attached.

Example entries begin here.
Cc1cc(-c2cc3ncccc3c(OC[C@H]3CCCNC3)n2)ccc1N(C)C.O=C(O)C(F)(F)F	0.47
Cc1cc(C)cc(C(=O)NOCCCCCC(=O)NO)c1	0.86

Data request: Recorded Growth Rate of Cc1ccc(C)c(OCCCC(C)(C)C(=O)O[C@@H]2O[C@H](C(=O)O)[C@@H](O)[C@H](O)[C@H]2O)c1 , please.
Data returned: 0.89

Data request: Recorded Growth Rate of CC(C)c1ccc(CC(=O)N[C@H](C)c2ccc(OCC(F)(F)F)cn2)cc1 [SUVECALTAMIDE] , please.
Data returned: 0.56

Data request: Recorded Growth Rate of COc1cc2ncnc(Nc3ccc(F)c(Cl)c3)c2cc1OCCN(C)C[C@H](C)O , please.
Data returned: 0.36

Data request: Recorded Growth Rate of CS(=O)(=O)CCNCc1ccc(-c2ccc3ncnc(Nc4ccc(OCc5cccc(F)c5)c(Cl)c4)c3c2)o1 , please.
Data returned: 0.93

Data request: Recorded Growth Rate of O=C(Nc1ccccc1Cl)c1cnc2ccc(C3CCNCC3)cn12.O=C(O)C(=O)O , please.
Data returned: 0.06
